Origin of measurements: patent US20070196376A1

Target: T1, human insulin-like growth factor-II (IGF-II) (human, UniProt P01344 25-91)
T1 construct: also called IGF2; IGF-2
Assay: Biacore low-resolution screen, mAb captured, IGF-II injected

Binder | Reading Unit | kon
mAb 7.234.2 (antibody, V domains shown, Kappa light chain (L5/JK3); also called 7.234.1; 7_234_1) VH: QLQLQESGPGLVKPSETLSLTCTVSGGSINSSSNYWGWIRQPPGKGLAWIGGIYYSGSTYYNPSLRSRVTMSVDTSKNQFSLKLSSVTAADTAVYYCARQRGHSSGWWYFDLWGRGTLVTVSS VL: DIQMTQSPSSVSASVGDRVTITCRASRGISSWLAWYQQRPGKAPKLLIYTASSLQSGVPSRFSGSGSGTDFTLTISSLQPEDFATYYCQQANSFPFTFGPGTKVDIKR | M⁻¹ s⁻¹ | 6.4e+06
